Task for the reader: assign each of the following molecules its reported IC50.
Tested on: H146 cells
Assay: H146 cell viability, MTT assay
Type: cell-based
Settings: Homo sapiens, NCI-H146, 48 h, 48 h exposure
Return type: number; implicit unit nM.

Enquiry: Need IC50 of Cc1cc(N(C)c2nc(C(=O)O)c(CCCOc3ccc(C#CCNCC[N+](C)(C)CCCS(=O)(=O)[O-])cc3F)s2)nnc1Nc1nc2ccccc2s1 [Example 218] , thanks.
Return: 891

Enquiry: Same read-out for CNCC#Cc1ccc(OCCCc2sc(N(CCCN(C)C)c3cc(C)c(Nc4nc5ccccc5s4)nn3)nc2C(=O)O)c(F)c1 [Example 200] ?
Return: 115

Enquiry: Also CNCC#Cc1ccc(OCCCc2sc(N(CCC[N+](C)(C)CCCS(=O)(=O)[O-])c3cc(C)c(Nc4nc5ccccc5s4)nn3)nc2C(=O)O)c(F)c1 [Example 235] ?
Return: 413

Enquiry: Would you kindly repeat that for Cc1cc(N(CCCCN2CCC(N)CC2)c2nc(C(=O)O)c(CCCOc3ccc(C#CCN(C)C)cc3F)s2)nnc1Nc1nc2ccccc2s1 [Example 175] ?
Return: 75

====

System: MOLT-4 cells
Experiment: MOLT-4 cell viability, MTT assay
Assay type: cell-based
Settings: Homo sapiens, MOLT-4, 48 h, 48 h exposure
Consider the cut-off 1000 nM. If the recorded IC50 is strictly smaller, the label is rule met; if not, the label is rule not met.

Enquiry: Quick check: IC50 of Cc1cc(N(CCCCC[N+](C)(C)CCCO)c2nc(C(=O)[O-])c(CCCOc3ccc(C#CCN(C)C)cc3F)s2)nnc1Nc1nc2ccccc2s1 [Example 225] under 1000 nM?
Return: rule not met

Enquiry: Record: Cc1cc(N(C)c2ccc(-c3cnn(CC45CC6(C)CC(C)(C4)CC(OCCNCCCO)(C6)C5)c3C)c(C(=O)O)n2)nnc1Nc1nc2ccccc2s1 [Example 268]
Return: rule met

Enquiry: Moving on to the next compound: Cc1cc(N(C)c2nc(C(=O)O)c(N3CC[C@H](Oc4ccccc4)C3)s2)nnc1Nc1nc2ccccc2s1 [Example 77]
Return: rule not met

Enquiry: Another: CNCC#Cc1ccc(OCCCc2sc(N(CCN(C)C)c3cc(C)c(Nc4nc5ccccc5s4)nn3)nc2C(=O)O)c(F)c1 [Example 207]
Return: rule not met

Enquiry: Then what about the compound CNCC#Cc1ccc(OCCCc2sc(N(CCCC(O)C[N+](C)(C)CCCS(=O)(=O)[O-])c3cc(C)c(Nc4nc5ccccc5s4)nn3)nc2C(=O)O)c(F)c1 (stereo not drawn) [Example 146] ?
Return: rule met

Enquiry: Same lookup for Cc1cc(N(CCCC(O)C[N+]23CCN(CC2)CC3)c2nc(C(=O)[O-])c(CCCOc3ccc(C#CCN(C)C)cc3F)s2)nnc1Nc1nc2ccccc2s1 (stereo not drawn) [Example 216] , please.
Return: rule met

====

Target: BCLXL (Homo sapiens, UniProt Q07817, V10N/V9A)
Sequence (Q07817 with tags, fused parts or gaps V9A/V10N): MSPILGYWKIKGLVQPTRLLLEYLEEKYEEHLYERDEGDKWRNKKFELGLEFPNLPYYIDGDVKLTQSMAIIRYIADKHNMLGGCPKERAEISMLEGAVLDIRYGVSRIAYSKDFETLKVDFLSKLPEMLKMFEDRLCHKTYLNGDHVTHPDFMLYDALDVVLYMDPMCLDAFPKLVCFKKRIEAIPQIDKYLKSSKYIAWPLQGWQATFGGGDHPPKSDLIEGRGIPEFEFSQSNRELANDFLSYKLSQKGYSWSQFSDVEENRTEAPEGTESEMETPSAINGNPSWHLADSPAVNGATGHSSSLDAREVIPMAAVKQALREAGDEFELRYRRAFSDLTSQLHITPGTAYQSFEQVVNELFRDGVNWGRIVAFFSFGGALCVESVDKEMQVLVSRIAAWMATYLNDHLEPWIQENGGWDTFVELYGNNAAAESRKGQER
Experiment: AlphaLISA assay (BIM peptide displacement)
Details: 20 pM protein, 1 nM peptide
pIC50: −log10 of the molar value.
Cut-off 10 on pIC50, inclusive. At or above means 1; below means 0.

Enquiry: Is pIC50 at least 10? Consider CNCC#Cc1ccc(OCCCc2sc(N(CCCC(CO)OC)c3cc(C)c(Nc4nc5ccccc5s4)nn3)nc2C(=O)O)c(F)c1 (stereo not shown)
Return: 1

Enquiry: Ok, now COCCCc1sc(N(C)c2cc(C)c(Nc3nc4ccccc4s3)nn2)nc1C(=O)O
Return: 0

Enquiry: Okay, and Cc1cc(N(C)c2nc(C(=O)O)c(C3CCN(C(=O)c4ccccc4)CC3)s2)nnc1Nc1nc2ccccc2s1 ?
Return: 0

Enquiry: Can you handle CNCC#Cc1ccc(OCCCc2sc(N(CCCO)c3cc(C)c(Nc4nc5ccccc5s4)nn3)nc2C(=O)O)c(F)c1 next?
Return: 1

Enquiry: What would you report for CNCC#Cc1ccc(OCCCc2sc(N(CCC(O)COC)c3cc(C)c(Nc4nc5ccccc5s4)nn3)nc2C(=O)O)c(F)c1 (stereo not shown) ?
Return: 1

Enquiry: // query: CNCC#Cc1ccc(OC/C(C)=C/c2sc(N(C)c3cc(C)c(Nc4nc5ccccc5s4)nn3)nc2C(=O)O)c(F)c1
Return: 0

Enquiry: Moving on to the next compound: Cc1cc(N(C)c2nc(C(=O)O)c(CCCOc3ccc(C#CC[N+](C)(C)CCCS(=O)(=O)[O-])cc3F)s2)nnc1Nc1nc2ccccc2s1
Return: 1

Data credit: patent US12649733B2
